The measurements presented in this section are drawn from patent US20230038638A1.

- ASSAYED_SYSTEM: human C4b (human) (UniProt P0C0L5)
- Sequence: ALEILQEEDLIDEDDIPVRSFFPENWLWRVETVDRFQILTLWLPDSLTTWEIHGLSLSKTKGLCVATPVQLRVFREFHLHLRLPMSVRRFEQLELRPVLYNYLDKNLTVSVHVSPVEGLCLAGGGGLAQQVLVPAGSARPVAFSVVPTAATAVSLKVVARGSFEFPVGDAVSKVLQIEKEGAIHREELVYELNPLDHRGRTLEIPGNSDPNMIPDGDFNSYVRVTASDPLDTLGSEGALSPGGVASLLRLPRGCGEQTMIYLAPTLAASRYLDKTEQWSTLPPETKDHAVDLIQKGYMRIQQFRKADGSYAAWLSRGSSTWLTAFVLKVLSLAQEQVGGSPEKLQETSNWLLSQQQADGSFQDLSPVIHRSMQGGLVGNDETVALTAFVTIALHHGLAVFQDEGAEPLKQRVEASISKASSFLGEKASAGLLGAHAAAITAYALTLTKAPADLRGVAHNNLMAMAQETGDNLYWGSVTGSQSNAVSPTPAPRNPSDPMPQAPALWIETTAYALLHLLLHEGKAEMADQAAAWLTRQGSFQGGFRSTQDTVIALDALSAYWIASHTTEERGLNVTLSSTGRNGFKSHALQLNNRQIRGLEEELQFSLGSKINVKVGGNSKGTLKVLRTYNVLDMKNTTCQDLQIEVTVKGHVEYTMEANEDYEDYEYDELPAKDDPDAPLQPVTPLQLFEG
MEASURED_PARAMETER: C4b Screen Ref Fold (fold of CFI-HSA wild type)

- SUBSTANCE: "CFI-HSA variant Y408L; N531G; WT; GGSSGG (SEQ ID NO: 6); CR1(ccp15-17) (from UniProt P17927) (enzyme)"
  RESULT_VALUE: 4.17
- SUBSTANCE: "CFI-HSA variant S507A; GGSSGG (SEQ ID NO: 6); CR1(ccp1-3) (from UniProt P17927) (enzyme)"
  RESULT_VALUE: 0.12
- SUBSTANCE: "CFI-HSA variant E457G; P535G; WT; GGSSGG (SEQ ID NO: 6); CR1(ccp15-17) (from UniProt P17927) (enzyme)"
  RESULT_VALUE: 3.89
- SUBSTANCE: "CFI-HSA variant Y408L; E457G; N531G; WT; GGSSGG (SEQ ID NO: 6); CR1(ccp15-17) (from UniProt P17927) (enzyme)"
  RESULT_VALUE: 3.65
- SUBSTANCE: "CFI-HSA variant Y408L; P535G; WT; GGSSGG (SEQ ID NO: 6); CR1(ccp15-17) (from UniProt P17927) (enzyme)"
  RESULT_VALUE: 3.01
- SUBSTANCE: "CFI-HSA variant Y408L; N531G; P535G; WT; GGSSGG (SEQ ID NO: 6); CR1(ccp15-17) (from UniProt P17927) (enzyme)"
  RESULT_VALUE: 3.6
- SUBSTANCE: "CFI-HSA variant N531G; P535G; WT; GGSSGG (SEQ ID NO: 6); CR1(ccp15-17) (from UniProt P17927) (enzyme)"
  RESULT_VALUE: 3.06
- SUBSTANCE: "CFI-HSA variant Y408L; E457G; N531G; P535G; WT; GGSSGG (SEQ ID NO: 6); CR1(ccp15-17) (from UniProt P17927) (enzyme)"
  RESULT_VALUE: 3.14
- SUBSTANCE: "CFI-HSA variant E457G; GGSSGG (SEQ ID NO: 6); CR1(ccp1-3) (from UniProt P17927) (enzyme)"
  RESULT_VALUE: 1.73
- SUBSTANCE: "CFI-HSA variant S507A; GGSSGG (SEQ ID NO: 6); CR1(ccp15-17) (from UniProt P17927) (enzyme)"
  RESULT_VALUE: -0.01
- SUBSTANCE: "CFI-HSA variant Y408L; E457G; P535G; WT; GGSSGG (SEQ ID NO: 6); CR1(ccp15-17) (from UniProt P17927) (enzyme)"
  RESULT_VALUE: 1.99
- SUBSTANCE: "CFI-HSA variant E457G; N531G; P535G; WT; GGSSGG (SEQ ID NO: 6); CR1(ccp15-17) (from UniProt P17927) (enzyme)"
  RESULT_VALUE: 5.82
- SUBSTANCE: "CFI-HSA variant E457G; N531G; WT; GGSSGG (SEQ ID NO: 6); CR1(ccp15-17) (from UniProt P17927) (enzyme)"
  RESULT_VALUE: 4.95
- SUBSTANCE: "CFI-HSA variant E457G; WT; GGSSGG (SEQ ID NO: 6); CR1(ccp15-17) (from UniProt P17927) (enzyme)"
  RESULT_VALUE: 6.11

====

- ASSAYED_SYSTEM: human C4b (human) (UniProt P0C0L5)
- Sequence: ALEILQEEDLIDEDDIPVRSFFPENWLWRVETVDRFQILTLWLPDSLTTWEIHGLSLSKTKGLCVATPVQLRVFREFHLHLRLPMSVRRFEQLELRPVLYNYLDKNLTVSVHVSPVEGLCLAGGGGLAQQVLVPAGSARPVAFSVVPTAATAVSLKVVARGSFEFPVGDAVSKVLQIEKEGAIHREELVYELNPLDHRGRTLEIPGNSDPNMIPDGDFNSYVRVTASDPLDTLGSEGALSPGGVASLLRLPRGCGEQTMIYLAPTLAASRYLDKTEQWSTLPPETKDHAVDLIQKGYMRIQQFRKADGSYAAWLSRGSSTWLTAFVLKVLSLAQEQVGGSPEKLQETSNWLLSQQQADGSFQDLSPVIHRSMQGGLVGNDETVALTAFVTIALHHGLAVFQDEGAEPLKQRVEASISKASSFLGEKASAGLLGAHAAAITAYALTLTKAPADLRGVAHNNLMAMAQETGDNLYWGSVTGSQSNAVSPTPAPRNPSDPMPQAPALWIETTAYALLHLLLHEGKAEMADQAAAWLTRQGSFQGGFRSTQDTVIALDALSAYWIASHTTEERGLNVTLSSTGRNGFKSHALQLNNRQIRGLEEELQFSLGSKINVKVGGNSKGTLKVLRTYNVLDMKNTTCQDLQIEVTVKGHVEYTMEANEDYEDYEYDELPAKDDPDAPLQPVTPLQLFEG
MEASURED_PARAMETER: C4b Screen Ref Fold (fold of CFI-HSA wild type)

- SUBSTANCE: "CFI-HSA variant N531G; WT; GGSSGG (SEQ ID NO: 6); CR1(ccp15-17) (from UniProt P17927) (enzyme)"
  ASSAYED_SYSTEM: "human C4b (human) (UniProt P0C0L5)"
  RESULT_VALUE: 5.3
- SUBSTANCE: "CFI-HSA variant Y408L; E457G; WT; GGSSGG (SEQ ID NO: 6); CR1(ccp15-17) (from UniProt P17927) (enzyme)"
  ASSAYED_SYSTEM: "human C4b (human) (UniProt P0C0L5)"
  RESULT_VALUE: 3.18
- SUBSTANCE: "CFI-HSA variant E457G; E461Q; R462K; F464Y; N531G; GGSSGG (SEQ ID NO: 6); CR1(ccp15-17) (from UniProt P17927) (enzyme)"
  ASSAYED_SYSTEM: "human C4b (human) (UniProt P0C0L5)"
  RESULT_VALUE: 5.42
- SUBSTANCE: "CFI-HSA variant Y408L; WT; GGSSGG (SEQ ID NO: 6); CR1(ccp15-17) (from UniProt P17927) (enzyme)"
  ASSAYED_SYSTEM: "human C4b (human) (UniProt P0C0L5)"
  RESULT_VALUE: 3.64
- SUBSTANCE: "CFI-HSA variant P535G; WT; GGSSGG (SEQ ID NO: 6); CR1(ccp15-17) (from UniProt P17927) (enzyme)"
  ASSAYED_SYSTEM: "human C4b (human) (UniProt P0C0L5)"
  RESULT_VALUE: 2.73
- SUBSTANCE: "CFI-HSA variant N531G; P535A; GGSSGG (SEQ ID NO: 6); CR1(ccp15-17) (from UniProt P17927) (enzyme)"
  ASSAYED_SYSTEM: "human C4b (human) (UniProt P0C0L5)"
  RESULT_VALUE: 3.53

====

- ASSAYED_SYSTEM: human C4b (human)
- Sequence: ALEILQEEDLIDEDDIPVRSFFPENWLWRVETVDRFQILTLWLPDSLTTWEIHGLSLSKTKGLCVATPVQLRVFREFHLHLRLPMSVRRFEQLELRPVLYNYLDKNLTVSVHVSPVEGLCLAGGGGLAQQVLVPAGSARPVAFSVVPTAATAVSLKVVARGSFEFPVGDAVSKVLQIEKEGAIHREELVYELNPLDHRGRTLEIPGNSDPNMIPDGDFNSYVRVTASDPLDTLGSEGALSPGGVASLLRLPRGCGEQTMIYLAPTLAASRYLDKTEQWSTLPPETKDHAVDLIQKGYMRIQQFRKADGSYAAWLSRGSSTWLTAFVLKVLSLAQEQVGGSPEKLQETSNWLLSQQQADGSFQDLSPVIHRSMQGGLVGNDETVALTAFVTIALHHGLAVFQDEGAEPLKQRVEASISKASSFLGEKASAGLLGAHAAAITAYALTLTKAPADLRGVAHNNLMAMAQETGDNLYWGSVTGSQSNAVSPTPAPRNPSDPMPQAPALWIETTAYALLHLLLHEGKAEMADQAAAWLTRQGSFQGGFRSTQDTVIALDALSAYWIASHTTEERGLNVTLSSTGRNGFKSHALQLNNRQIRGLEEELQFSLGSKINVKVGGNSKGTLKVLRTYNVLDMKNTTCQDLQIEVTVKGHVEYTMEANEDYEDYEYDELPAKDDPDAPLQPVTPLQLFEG
List of C4b Screen Ref Fold (fold vs CFI-HSA wild type) values.
MEASURED_PARAMETER: C4b Screen Ref Fold (fold vs CFI-HSA wild type)

- SUBSTANCE: "CFI-HSA E457G; N531G; E461Q; R462K; F464Y; E530Y; GGSSGG (SEQ ID NO: 6); CR1(ccp15-17) (from UniProt P17927) (enzyme)"
  RESULT_VALUE: 2.87
- SUBSTANCE: "CFI-HSA variant ΔC-term (Δ558-PFISQYNV (SEQ ID NO: 14)-565) (enzyme)"
  RESULT_VALUE: 0.11
- SUBSTANCE: "CFI-HSA E457G; E461Q; F464Y; N531G; GGSSGG (SEQ ID NO: 6); CR1 (ccp15-17) (from UniProt P17927) (enzyme)"
  RESULT_VALUE: 4.44
- SUBSTANCE: "Δ(K1-P305); GGSSGG (SEQ ID NO: 6); fH_CCP1-4 (enzyme)"
  RESULT_VALUE: 0.15
- SUBSTANCE: "WT; GGSSGG (SEQ ID NO: 6); CCP_1-4; GGSS(6) + G; compstatin (enzyme)"
  RESULT_VALUE: 0.25
- SUBSTANCE: "CFI-HSA Y408L; E457G; E461Q; R462K; N531G; ΔC-term (Δ558-PFISQYNV (SEQ ID NO: 14)-565) (enzyme)"
  RESULT_VALUE: 1.67
- SUBSTANCE: "Δ(K1-P305); GGSSGG (SEQ ID NO: 6); fH_CCP2-4 (enzyme)"
  RESULT_VALUE: 0.06
- SUBSTANCE: "WT; GGSSGG (SEQ ID NO: 6); CCP_1-4 (enzyme)"
  RESULT_VALUE: 0.21
